Tested on: SNB-19 CNS
Assay: NCI-60 one-dose screen, 48 h
Conditions: 10 µM
About 83,000 compounds went through this panel and 20% of them were active in at least one assay; those are over-represented in the sample as a whole. Calls of active or inactive are those of the source. The calls were made as follows: active = growth percent below 10; inactive = the rest.
Choose the fitting class; nothing outside active, inactive is accepted.

Structure Smiles: COc1ccc(-c2nc(-c3nc4ccc(C)cc4[nH]3)c3ccccn23)cc1
Target Of Assay: SNB-19 CNS
Label: inactive

Challenge: Assay result, entry "N#CCC1CCCC1" — outcome?
Response given: inactive

Challenge: Tell me the recorded outcome of this test for "N#C/C(=C/c1cc([N+](=O)[O-])ccc1Cl)C(N)=O" .
Response given: inactive

Challenge: Call for entry "COc1ccc2nc(NC(=O)Nc3c(F)cccc3F)sc2c1" :
Response given: inactive

Challenge: Per the assay record, what outcome was assigned to "COc1ccc(-c2oncc2-c2cc(OC)c3c(c2)OCO3)cc1" ?
Response given: inactive

Challenge: What outcome does the record of this test show for "C#CCNCCCN1C(=O)c2ccc3c4c(ccc(c24)C1=O)C(=O)N(CCCNCC#C)C3=O" ?
Response given: active

Challenge: Assay outcome for "CCCc1c(CC)c(=N)c2ccccc2n1C" : what was it?
Response given: inactive

* * *

Catalogue of compounds with associated growth
System: MDA-MB-435 melanoma
Experiment: NCI-60 one-dose screen, 48 h (100 = growth as untreated, 0 = no growth, -100 = all killed)
Conditions: 10 µM
This is part of a sample that, as a whole, favours compounds with a hit. Of some 83,000 tested, about 20% had one in any assay.
All answers are understood in %, so give the number only.

Compound: CN1CCN(c2nc(-c3cccnc3)nc3sc4c(c23)CCCCCC4)CC1
Target Of Assay: MDA-MB-435 melanoma
Readout Unit: %
growth: 98.4
--
Compound: Cc1nn2c(/C=C3/C(=O)Nc4ccc(Cl)cc43)c(-c3ccccc3)nc2s1
Target Of Assay: MDA-MB-435 melanoma
Readout Unit: %
growth: 44.4
--
Compound: O=NN(CCCl)C(=O)Nc1ccc(NC(=O)N(CCCl)N=O)cc1
Target Of Assay: MDA-MB-435 melanoma
Readout Unit: %
growth: 90.3

Now let's try a different one.
Challenge: // growth lookup, key: COc1ccc(C2CC(c3ccc(-c4ccccc4)cc3)=NN2c2ccc(S(N)(=O)=O)cc2)cc1 (centres undefined)
Response given: 76

* * *

Tested on: K-562 leukemia
Experiment: NCI-60 one-dose screen, 48 h (100 = growth as untreated, 0 = no growth, -100 = all killed)
Conditions: 10 µM
About 83,000 compounds went through this panel and 20% of them were active in at least one assay; those are over-represented in the sample as a whole.
Please respond with condition met when measured growth is strictly beneath 40%, and with condition not met in all other cases.

# example entries with known answers
Molecule: CCOC(=O)/C(C#N)=C(/C)C1CC1
Label: condition not met
--
Molecule: COc1cc(-c2nc3ccc(C)cc3[nH]2)ccc1OCc1nnc(-c2ccc(CC(C)C)cc2)o1
Label: condition not met
--
Molecule: CCN(Cc1ccccc1)C1CCN(Cc2cc(Br)ccc2O)CC1
Label: condition met
--
Molecule: CC1=CSC2=NC(c3ccc(Cl)c(Cl)c3)=CC(c3ccc(Cl)cc3)N12 (stereo not drawn)
Label: condition met
--
Molecule: Cc1ccc(C2C=C(c3ccc(Cl)cc3)N=C3SC=CN32)c(Br)c1 (stereo not drawn)
Label: condition not met

Challenge: growth under 40%? Item: COc1cccc(C(=O)N(c2ccc(F)c(F)c2)C(C(=O)NC(C)(C)C)c2cc3c(C)cc(C)cc3nc2Cl)c1 (stereo not drawn)
Response given: condition not met

Challenge: API: query returns whether the molecule falls strictly under 40% in growth. Query: "COc1ccc2c(c1)/C(=C/c1cc(OC)c(OC)c(OC)c1)C(=O)N2C"
Response given: condition met

Challenge: Quick check: growth of "CCN1CCN(c2ccc(Nc3ncnc4c3nnn4CCc3cc(OC)cc(OC)c3)cc2)CC1" under 40%?
Response given: condition not met

Challenge: Given the entry "C[C@]12CC[C@H]3[C@@H](CCC4=CC(=O)CC[C@@]43C)[C@@H]1CC[C@@H]2c1csc(N)n1" , would its reported growth be below 40%?
Response given: condition met

Challenge: Answer whether the molecule "CCOc1ccc2c(c1)CC[C@@H]1[C@@H]2CC[C@]2(C)[C@@H](O)[C@@H](O)C[C@@H]12" has growth strictly less than 40%
Response given: condition not met

Challenge: # check: growth < 40% for "O=c1ccc2nc(-c3ccccc3)nn(-c3ccccc3)c-2c1"
Response given: condition met

Challenge: Could you please tell me whether growth recorded for "Cc1nc(Nc2nc3ccccc3o2)nc(-c2cccc([N+](=O)[O-])c2)c1C(=O)Nc1ccc(F)c(Cl)c1" is less than 40%?
Response given: condition met

Challenge: Strictly below 40% in growth? CC(=O)Nc1ccc2c(c1)C(N1CC3CCC(CC3)C1)c1ccccc1-2 (stereo not drawn)
Response given: condition not met

Challenge: Is the reported growth for "O=C(NNC(=O)c1ccncc1)Nc1ccc([N+](=O)[O-])cc1" strictly below 40%?
Response given: condition not met

Challenge: Determine whether this molecule shows growth lower than 40% (ties excluded): "Cc1ccc(-n2nnc3c(sc4ccccc43)c2=O)cc1"
Response given: condition not met

Challenge: Please state whether growth is below 40% for COc1ccc(NC(=O)c2sc3nc4c(cc3c2N)C(O)CCC4)cc1 (stereo not drawn)
Response given: condition not met

Challenge: Bench note: check whether CCCC(C)c1ccc(OCCCCCCN2CCNCC2)cc1 (stereo not drawn) shows growth below 40%
Response given: condition met

Challenge: growth under 40%? Item: "COC(=O)c1c(C)nc(Nc2nc3ccccc3s2)nc1-c1ccc(Cl)cc1Cl"
Response given: condition not met

Challenge: Is 40% strictly greater than the molecule's reported growth? molecule: "CCOC(=S)Sc1ccc([N+](=O)[O-])cc1[N+](=O)[O-]"
Response given: condition met

* * *

Tested on: DU-145 prostate
Experiment: NCI-60 one-dose screen, 48 h (100 = growth as untreated, 0 = no growth, -100 = all killed)
Conditions: 10 µM
About 83,000 compounds went through this panel and 20% of them were active in at least one assay; those are over-represented in the sample as a whole.
Measure Name: growth (%)
Report only the number, with the unit % understood.

Challenge: # get_value(readout='growth', item= "N#Cc1c2c([nH]c(=O)c1C(N)=O)CCCCC2" )
Response given: 115

Challenge: # get_value(readout='growth', item= "COc1cc(C)c2sc3ccccc3c(=O)c2c1NCCN(C)C" )
Response given: 77.1

Challenge: I am curious: what growth value has been reported for "CCOc1nc(-c2ccccc2)cc2c(O)c(C(=O)N/N=C/c3ccc(OC)cc3)[nH]c(=O)c12" ?
Response given: 122

* * *

System: DU-145 prostate
Test: NCI-60 one-dose screen, 48 h (100 = growth as untreated, 0 = no growth, -100 = all killed)
Settings: 10 µM
Experimental: Cells are grown in 96 well plates and exposed to the test compound for 48 hours. Compounds are tested at a single concentration, which is 10^-5 M for most compounds. The reported endpoint is percent growth (GI% or GIPRCNT), where numbers from 0 - 100% represent growth inhibition, and numbers from -100% - 0 represent cell death. For example, a value of 40 represents 60% growth inhibition. A value of 0 means no net growth occurred over the course of the experiment. […]
Compounds without any hit were thinned out: in the full panel of roughly 83,000, 20% have a hit.
Use label 1 when the recorded growth is no lower than 20%; use label 0 when it is lower.

Challenge: Could you verify whether the entry NC1CCC(Nc2nc(NCc3ccc(-c4cccs4)nc3)c3ncn(C4CCCC4)c3n2)CC1 (configuration not stated) shows growth of no less than 20%?
Response given: label 0

Challenge: // inclusive: growth at least 20%? input: "N=C(N)c1ccc(-c2ccc(-c3ccccc3)s2)cc1F"
Response given: label 0

Challenge: I'd appreciate it if you could say whether "COc1cccc2c1O/C(=C\c1ncc([N+](=O)[O-])n1C)C2=O" has growth at least equal to 20%.
Response given: label 0

Challenge: Kindly determine if growth recorded for "O=[N+]([O-])c1ccc(Br)o1" is above or exactly 20%.
Response given: label 1

Challenge: Tell me whether growth is at least 20% here: "Cc1cc(/C=C2\SC(=Nc3ccccc3)N(C3CCCC3)C2=O)c(C)n1-c1ccc(Cl)cc1"
Response given: label 0

Challenge: Confirm if growth reported for the compound "COCCOC(=O)NC(=O)Nc1ccc(/C(=N/O)c2ccc(Cl)cc2)cc1" is 20% or above.
Response given: label 0

Challenge: Check if growth >= 20% (inclusive). Item: "CCOC(=O)c1cc2c(n1Cc1ccccc1)-c1oncc1CC2"
Response given: label 1

Challenge: Can "C[N+]1=C(/C=C/c2ccc(I)cc2)C(C)(C)c2ccccc21" be said to have growth at or above 20%?
Response given: label 1

Challenge: Check this compound for growth at or above 20%: O=[N+]([O-])C1CC2C=CC1C2 (configuration not stated)
Response given: label 1

Challenge: Check the entry "CCCCCCCCCCCCCC[n+]1ccc(C)cc1" : does growth equal or exceed 20%?
Response given: label 0
